# Test system: RPMI-8402;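 also: ALL cell lines in 384-well plates, five doses spanning 10,000-fold, each plate scaled between vehicle and 100 µmol/L benzalkonium chloride controls, sDSS an adapted area-under-curve metric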
# PROCEDURE_DETAILS: selective drug sensitivity score (sDSS, relative to normal bone marrow) (sDSS (score)); higher = more potent and effective on the cell line relative to normal bone marrow cells
# DETAILS: 72 h
Label 1 when selective drug sensitivity score >= 2; otherwise 0.

Solved cases (5 shown):
> print(dat)
                                   compound  class.assignment
1  CON(C)C(=O)N1N=C(c2cc(F)ccc2F)S[C@@]1(CCCN)c1ccccc1 [Filanesib] (top concentration 1000 nM)                 1
2  O=S(=O)(c1cccc2c(O)nccc12)N1CCCNCC1 [Hydroxyfasudil] (top concentration 19000 nM)                 0
3  CC(O)(CS(=O)(=O)c1ccc(F)cc1)C(=O)Nc1ccc(C#N)c(C(F)(F)F)c1 (stereo not drawn) [Bicalutamide] (top concentration 10000 nM)                 0
4  COc1cc2c(cc1-c1c(C)noc1C)ncc1[nH]c(=O)n([C@H](C)c3ccccn3)c12 [I-BET151] (top concentration 10000 nM)                 1
5  CCS(=O)(=O)N1CCN(c2ccc(Nc3ncc(C(N)=O)c(NC4CC4)n3)cc2)CC1 [Cerdulatinib] (top concentration 10000 nM)                 0

Query block: Confirm if selective drug sensitivity score reported for the compound Nc1cc(C(F)(F)F)c(-c2cc(N3CCOCC3)nc(N3CCOCC3)n2)cn1 [Buparlisib] (top concentration 10000 nM) is 2 or above.
Result block: 1

Query block: Confirm if selective drug sensitivity score reported for the compound COc1cc2c(Nc3ccc(Cl)c(Cl)c3F)ncnc2cc1OC[C@@H]1C[C@@H]2CN(C)C[C@@H]2C1 [Tesevatinib] (top concentration 1000 nM) is 2 or above.
Result block: 0

Query block: Confirm if selective drug sensitivity score reported for the compound CN(C(=O)c1ccc(F)cc1C(F)(F)F)C1CCN(c2nnc(-c3ccnn3C)c3ccccc23)CC1 [Taladegib] (top concentration 10000 nM) is 2 or above.
Result block: 1

Query block: Confirm if selective drug sensitivity score reported for the compound COc1c(C)cnc(Cn2cnc3c(Cl)nc(N)nc32)c1C [BIIB021] (top concentration 10000 nM) is 2 or above.
Result block: 0

Query block: Confirm if selective drug sensitivity score reported for the compound N.N.[Cl][Pt][Cl] [Cisplatin] (top concentration 100000 nM) is 2 or above.
Result block: 1

Query block: Confirm if selective drug sensitivity score reported for the compound O=C(O)CCCCC(CCSCc1ccccc1)SCc1ccccc1 (stereo not drawn) [Devimistat (CPI-613)] (top concentration 10000 nM) is 2 or above.
Result block: 0

Query block: Confirm if selective drug sensitivity score reported for the compound C=CC(=O)Nc1cccc(Nc2nc(Nc3ccc(N4CCN(C(C)=O)CC4)cc3OC)ncc2C(F)(F)F)c1 [Rociletinib] (top concentration 10000 nM) is 2 or above.
Result block: 1
